Tested on: Renilla luciferase (RLuc)
method-notes: residual bioluminescent signal relative to negative (DMSO) control; higher = less interference (more residual luciferase signal)
conditions-used: metal salt concentration 0.01 mM; HEPES conditions (100 mM HEPES, 0.05% BSA, 0.3 M sodium ascorbate, pH 7.5)
Please use True whenever residual bioluminescent signal is not below 90%, and False whenever it is.

{"columns": ["compound", "label-value"],
 "data": [
  ["O=S(=O)([O-])[O-].[Fe+2] [iron(II) sulfate]", "False"],
  ["[Cl][Fe][Cl] [iron(II) chloride]", "False"],
  ["O.O.O.O.O.O.O.O=S(=O)([O-])[O-].[Mg+2] [magnesium sulfate]", "False"],
  ["CC#N.CC#N.CC#N.CC#N.F[B-](F)(F)F.[Cu+] [tetrakis(acetonitrile)copper(I) tetrafluoroborate]", "True"]
]}

Here is another compound to look at.
Enquiry: Would you say O=S(=O)([O-])[O-].[Mn+2] [manganese(II) sulfate] shows residual bioluminescent signal at minimum 90%?
Return: True

---

Below is a list of entries, each paired with its recorded residual bioluminescent signal value.
System: NanoLuc luciferase (NLuc)
method-notes: residual bioluminescent signal relative to negative (DMSO) control; higher = less interference (more residual luciferase signal)
conditions-used: metal salt concentration 5 mM; HEPES conditions (100 mM HEPES, 0.1% BSA, pH 7.5)
State just the number; it will be interpreted in %.

{"columns": ["compound", "target-desc", "unit-label", "residual bioluminescent signal"],
 "data": [
  ["O=S(=O)([O-])[O-].[Fe+2] [iron(II) sulfate]", "NanoLuc luciferase (NLuc)", "%", 0.329],
  ["O=C([O-])[O-].[Cs+].[Cs+] [caesium carbonate]", "NanoLuc luciferase (NLuc)", "%", 91.4],
  ["[Cl][Fe][Cl] [iron(II) chloride]", "NanoLuc luciferase (NLuc)", "%", 0.172]
]}

Enquiry: Param item = O=S(=O)([O-])[O-].[Mn+2] [manganese(II) sulfate] ; retrieve measured residual bioluminescent signal.
Return: 96

Enquiry: Param item = [Cl][Fe]([Cl])[Cl] [iron(III) chloride] ; retrieve measured residual bioluminescent signal.
Return: 0.188

---

Tested on: Renilla luciferase (RLuc)
method-notes: residual bioluminescent signal relative to negative (DMSO) control; higher = less interference (more residual luciferase signal)
conditions-used: metal salt concentration 5 mM; screening conditions (50 mM Tris-HCl, […] KH2PO4, […] NaCl, 0.25 mM EDTA, 0.1% BSA, 0.3 M sodium ascorbate, pH 7.4)
property-label: residual bioluminescent signal (%)
State just the number; it will be interpreted in %.

{"columns": ["compound", "property-label", "reported"],
 "data": [
  ["O.O.O.O.O.O.O.O=S(=O)([O-])[O-].[Mg+2] [magnesium sulfate]", "residual bioluminescent signal", 109],
  ["O=S(=O)([O-])[O-].[Mn+2] [manganese(II) sulfate]", "residual bioluminescent signal", 109],
  ["O=C([O-])[O-].[Cs+].[Cs+] [caesium carbonate]", "residual bioluminescent signal", 87.8]
]}

Enquiry: Param item = [Cl-].[Na+] [sodium chloride] ; retrieve measured residual bioluminescent signal.
Return: 94.4

Enquiry: Param item = O=C([O-])[O-].[K+].[K+] [potassium carbonate] ; retrieve measured residual bioluminescent signal.
Return: 76.8

Enquiry: Param item = O.O.O.O.O.O.O.O.O.O.O=S(=O)([O-])[O-].[Na+].[Na+] [sodium sulfate] ; retrieve measured residual bioluminescent signal.
Return: 109

Enquiry: Param item = [Cl][Fe][Cl] [iron(II) chloride] ; retrieve measured residual bioluminescent signal.
Return: 0.404

Enquiry: Param item = [Cl][Pt-2]([Cl])([Cl])[Cl].[K+].[K+] [potassium tetrachloroplatinate(II)] ; retrieve measured residual bioluminescent signal.
Return: 1.17
